In this section, each of the molecules is paired with its reported CC50 at 72 h.
assay: Cytotoxicity against human HepG2.2.15 cells after 3 days by MTT assay; assay type: cell-based, HepG2 2.2.15

- test_smiles: "Cc1ccc(-c2cn([C@]3(CO)O[C@@H](n4ccc(N)nc4=O)[C@@H](F)[C@@H]3O)nn2)cc1"
  CC50 at 72 h (µM): 498
- test_smiles: "Nc1ccn([C@@H]2O[C@@](CO)(n3cc(C4CC4)nn3)[C@@H](O)[C@@H]2F)c(=O)n1"
  CC50 at 72 h (µM): 834
- test_smiles: "Nc1ccn([C@@H]2O[C@@](CO)(n3cc(-c4ccccc4)nn3)[C@@H](O)[C@@H]2F)c(=O)n1"
  CC50 at 72 h (µM): 566
